Target: recombinant CD3 antigen (ectodomain of hCD3) (human) (UniProt P07766)
Sequence (P07766 23-126): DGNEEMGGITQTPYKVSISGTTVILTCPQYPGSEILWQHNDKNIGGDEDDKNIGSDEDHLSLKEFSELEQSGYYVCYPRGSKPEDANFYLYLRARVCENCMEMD
Assay: SPR; ProteOn XPR36; HER2 and CD3 antigens amine-coupled on a GLC chip at 1000 RU; M802 (0 to 50 nM) and other antibodies injected; 1:1 L interaction model for HER2, two state interaction model for CD3
quantity_kind: Kd (nM)
Answer with a number only, understood to be in nM.

Entry under review: M802, anti-HER2/CD3 bispecific antibody (MSBODY format: monovalent unit against HER2 and single chain unit against CD3) . Reported Kd?
71.2
